Experimental target: T1, human MHC class II DR protein (DRA*0101/DRB1*0401), purified from PRIESS cells (human, UniProt P01903 26-254; P01911 30-266, limits assumed)
T1 construct: mature; also called HLA-DR protein; MHCII
T1 MHC II alpha: not shown
T1 MHC II beta: not shown
Assay details: SPR (BIAcore), MHCII on CM5 chip
For each record, write down the corresponding pKd.
Numbers only, as −log10 of the molar value.

Dear colleague, could you please provide pKd for the binders listed below?
1. MS-GPC-8-6-27 Fab (Fab, V domains shown, Fab: VH-CH1 with FLAG tag and STREP tag II, VL-CL; VH residue 1 is Q in Fab) VH: QVQLKESGPALVKPTQTLTLTCTFSGFSLSTSGVGVGWIRQPPGKALEWLALIDWDDDKYYSTSLKTRLTISKDTSKNQVVLTMTNMDPVDTATYYCARSPRYRGAFDYWGQGTLVTVSS VL: DIVLTQPPSVSGAPGQRVTISCSGSDSNIGANYVTWYQQLPGTAPKLLIYDNNQRPSGVPDRFSGSKSGTSASLAITGLQSEDEADYYCQSYDYDHYVFGGGTKLTVLG
2. MS-GPC-8-27-10 Fab (Fab, V domains shown, Fab: VH-CH1 with FLAG tag and STREP tag II, VL-CL; VH residue 1 is Q in Fab) VH: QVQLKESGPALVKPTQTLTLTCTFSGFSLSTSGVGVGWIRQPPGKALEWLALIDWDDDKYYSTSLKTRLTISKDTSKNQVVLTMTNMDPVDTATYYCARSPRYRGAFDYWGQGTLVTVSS VL: DIVLTQPPSVSGAPGQRVTISCSGSESNIGANYVNWYQQLPGTAPKLLIYDNNQRPSGVPDRFSGSKSGTSASLAITGLQSEDEADYYCQSYDMNVHVFGGGTKLTVLG
3. MS-GPC-8-27-7 Fab (Fab, V domains shown, Fab: VH-CH1 with FLAG tag and STREP tag II, VL-CL; VH residue 1 is Q in Fab) VH: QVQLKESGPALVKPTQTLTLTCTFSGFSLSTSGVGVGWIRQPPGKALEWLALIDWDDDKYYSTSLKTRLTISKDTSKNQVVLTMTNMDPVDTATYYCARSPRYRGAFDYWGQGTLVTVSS VL: DIVLTQPPSVSGAPGQRVTISCSGSESNIGNNYVGWYQQLPGTAPKLLIYDNNQRPSGVPDRFSGSKSGTSASLAITGLQSEDEADYYCQSYDMNVHVFGGGTKLTVLG
4. MS-GPC-8-6-2 Fab (Fab, V domains shown, Fab: VH-CH1 with FLAG tag and STREP tag II, VL-CL; VH residue 1 is Q in Fab) VH: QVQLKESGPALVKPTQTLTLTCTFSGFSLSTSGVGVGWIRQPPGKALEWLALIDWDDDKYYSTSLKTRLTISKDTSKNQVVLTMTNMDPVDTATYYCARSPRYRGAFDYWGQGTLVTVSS VL: DIVLTQPPSVSGAPGQRVTISCSGSESNIGSNYVHWYQQLPGTAPKLLIYDNNQRPSGVPDRFSGSKSGTSASLAITGLQSEDEADYYCQSYDYDHYVFGGGTKLTVLG

a:
[8.20, 8.52, 8.48, 8.12]

Working through the 3 binders below one at a time, give pKd for each.
1. MS-GPC-8-27-41 Fab (Fab, V domains shown, Fab: VH-CH1 with FLAG tag and STREP tag II, VL-CL; VH residue 1 is Q in Fab; also called 1D09C3) VH: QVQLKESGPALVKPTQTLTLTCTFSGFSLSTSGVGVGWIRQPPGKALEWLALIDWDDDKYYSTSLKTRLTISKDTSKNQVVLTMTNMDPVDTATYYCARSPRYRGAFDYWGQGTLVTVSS VL: DIVLTQPPSVSGAPGQRVTISCSGSESNIGNNYVQWYQQLPGTAPKLLIYDNNQRPSGVPDRFSGSKSGTSASLAITGLQSEDEADYYCQSYDMNVHVFGGGTKLTVLG
2. MS-GPC-8-6-45 Fab (Fab, V domains shown, Fab: VH-CH1 with FLAG tag and STREP tag II, VL-CL; VH residue 1 is Q in Fab) VH: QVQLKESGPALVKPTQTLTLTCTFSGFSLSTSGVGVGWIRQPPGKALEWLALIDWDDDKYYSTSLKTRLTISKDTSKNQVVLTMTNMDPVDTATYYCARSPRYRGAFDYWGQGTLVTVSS VL: DIVLTQPPSVSGAPGQRVTISCSGSEPNIGSNYVFWYQQLPGTAPKLLIYDNNQRPSGVPDRFSGSKSGTSASLAITGLQSEDEADYYCQSYDYDHYVFGGGTKLTVLG
3. MS-GPC-8-6-47 Fab (Fab, V domains shown, Fab: VH-CH1 with FLAG tag and STREP tag II, VL-CL; VH residue 1 is Q in Fab) VH: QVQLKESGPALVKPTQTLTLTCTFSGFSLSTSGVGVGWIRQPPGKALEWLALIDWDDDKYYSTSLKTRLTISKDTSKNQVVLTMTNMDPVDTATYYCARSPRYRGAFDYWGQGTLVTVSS VL: DIVLTQPPSVSGAPGQRVTISCSGSESNIGSNYVSWYQQLPGTAPKLLIYDNNQRPSGVPDRFSGSKSGTSASLAITGLQSEDEADYYCQSYDYDHYVFGGGTKLTVLG

a:
8.54
8.07
8.49
